Ref: patent US20100069341A1

- system.tested: Cannabinoid CB1 Receptor (Homo sapiens, UniProt P21554)
- Construct: expressed in transfected cells; semi-purified membrane pellet
- Sequence (P21554 whole entry): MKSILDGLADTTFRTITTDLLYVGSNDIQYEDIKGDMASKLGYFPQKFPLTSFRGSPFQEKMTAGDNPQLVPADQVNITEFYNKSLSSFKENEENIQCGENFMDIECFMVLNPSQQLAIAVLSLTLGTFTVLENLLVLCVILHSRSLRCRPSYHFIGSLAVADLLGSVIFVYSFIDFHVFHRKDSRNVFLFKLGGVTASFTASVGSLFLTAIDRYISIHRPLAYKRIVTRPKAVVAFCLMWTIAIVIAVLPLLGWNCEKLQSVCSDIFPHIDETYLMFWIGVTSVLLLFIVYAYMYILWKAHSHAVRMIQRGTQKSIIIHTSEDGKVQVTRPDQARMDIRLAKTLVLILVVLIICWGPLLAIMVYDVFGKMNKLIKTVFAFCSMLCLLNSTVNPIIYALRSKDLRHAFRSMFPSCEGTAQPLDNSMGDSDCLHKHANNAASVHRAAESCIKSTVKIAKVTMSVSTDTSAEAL
- experiment.description: Binding assay, cannabinoid CB1 receptor ([3H]-CP-55,940 displacement, SK-N-MC cell membranes)
- condition.summary: test concentration of 0.2 μM; human CB1 in SK-N-MC membranes; read-out: Cannabinoid CB1 Receptor Binding, percent inhibition
Quick list: inhibition at 0.2 µM per entry.
Put your answer as a value accompanied by its unit after it.

In the examples that follow, each entry is paired with its recorded inhibition at 0.2 µM.
compound	inhibition at 0.2 µM
O=C(NN1CC2CCCC2C1)c1nn(-c2ccc(Cl)cc2Cl)c2c1COC/C2=C\c1cccs1 (stereo not drawn) [Cpd 38]	79%
O=C(NN1CCCCC1)c1nn(-c2ccc(Cl)cc2Cl)c2c1COCC2Cc1ccc(F)cc1 (stereo not drawn) [Cpd 23]	59%

Now for another entry.
Return reported inhibition at 0.2 µM; argument: C[C@@H](NC(=O)c1nn(-c2ccc(Cl)cc2)c2c1COC/C2=C\c1ccc(F)cc1)c1ccccc1 [Cpd 12]
81%
